B1: NF2 (merlin) isoform 7, human, full length (507 aa, lacks exons 2-3 = isoform-1 residues 39-121; exon-16 C-terminus), P35240-4 (parent)
chain: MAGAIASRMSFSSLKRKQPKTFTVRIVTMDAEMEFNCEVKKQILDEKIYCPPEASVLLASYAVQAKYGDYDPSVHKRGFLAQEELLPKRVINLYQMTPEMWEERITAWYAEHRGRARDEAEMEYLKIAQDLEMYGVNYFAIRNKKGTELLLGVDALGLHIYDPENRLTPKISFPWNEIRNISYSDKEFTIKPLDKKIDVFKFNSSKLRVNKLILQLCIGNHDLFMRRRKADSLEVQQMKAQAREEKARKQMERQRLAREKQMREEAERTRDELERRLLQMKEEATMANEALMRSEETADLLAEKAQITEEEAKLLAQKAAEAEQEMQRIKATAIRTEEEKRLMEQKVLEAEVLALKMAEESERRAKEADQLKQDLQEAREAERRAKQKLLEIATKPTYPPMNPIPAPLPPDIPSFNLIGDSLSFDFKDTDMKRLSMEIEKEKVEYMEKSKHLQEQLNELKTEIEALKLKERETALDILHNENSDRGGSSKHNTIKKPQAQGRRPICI

- Variants of: B1
- method-notes: reverse yeast two-hybrid deep mutational scan (rY2H-seq): NF2 isoform 7 mutant library as bait mated with wild-type prey strains; selection on medium lacking adenine for non-interacting pairs; NextSeq paired-end sequencing; enrichment vs …
- measurement-setup: with KDM1A (lysine-specific histone demethylase 1A; the table's label AOF2 is a gene synonym of KDM1A), O60341; yeast diploids after mating (RBait_S3 x RPrey_S3), 30 °C, selection for reporter genes on NB agar; human tyrosine kinase ABL2 co-expressed as the active kinase …; HIGHER = WEAKER BINDING (the opposite of display enrichments): higher = stronger loss of interaction: reverse Y2H selects yeast in which bait and prey do NOT interact (growth without adenine), so a …; hits-only table; scale: rY2H score; numbering: uniprot, sequence starts at 1
assay-endpoint: enrichment

// below: answered variants
[[record]]
mutant_code = "T308K"
reported_result = 2.24

[[record]]
mutant_code = "E309K"
reported_result = 1.97

[[record]]
mutant_code = "I334L"
reported_result = 3.11

[[record]]
mutant_code = "V56C"
reported_result = 6.5

[[record]]
mutant_code = "Y161A"
reported_result = 2.23


P. E259V
Q. E338A
Compare reported enrichment values for P and Q . Which is lower? // respond with label for picked entry
P
